Cited source for all entries: PubChem BioAssay (NCI)

System: OVCAR-4 ovarian
test.protocol: NCI-60 one-dose screen, 48 h (100 = growth as untreated, 0 = no growth, -100 = all killed)
run.conditions: 10 µM unless noted
This is part of a sample that, as a whole, favours compounds with a hit. Of some 83,000 tested, about 20% had one in any assay. The source made the active and inactive calls. Rule for the calls: active = growth percent below 10; inactive = the rest.
parameter.measured: growth

Look over these answered cases.
- compound: "Cc1ccccc1C(=O)NN"
  result: "117% (inactive)"
- compound: "COc1cc(/C=N/NC(=O)c2ccc(C)nc2)cc(OC)c1OC"
  result: "96.4% (inactive)"
- compound: "Cc1c(C(=O)NCCN2CCOCC2)cn2ncnc(Oc3ccc(NC(=O)Nc4ccc(Cl)c(C(F)(F)F)c4)cc3)c12"
  result: "31.7% (inactive)"
- compound: "C=C(C)C1CCC2(C)OC2C1 (stereo unspecified)"
  result: "94.6% (inactive)"
- compound: "COc1nc2ccccc2cc1-c1nc2c(cnn2-c2ccc(Br)cc2)c(=O)[nH]1"
  result: "57.3% (inactive)"

growth lookup needed for CSc1ncccc1C(=O)OCC(=O)Nc1oc(C)c2c(C)n[nH]c(=O)c12 , thanks. 104% (inactive)

* * *

Test system: PC-3 prostate
test.protocol: NCI-60 one-dose screen, 48 h (100 = growth as untreated, 0 = no growth, -100 = all killed)
run.conditions: 10 µM unless noted
The panel holds about 83,000 compounds, 20% with a hit somewhere; the sample as a whole holds those more often.
Recorded growth determines the group label, using Low (below 50%), Mid (50% to below 90%), High (90% or more)

- compound: "COc1ccc(-c2cc3c4c(nc5ccccc5c4c2)CC(c2cc(OC)c(OC)c(OC)c2)O3)cc1 (stereo not given)"
  test.system: "PC-3 prostate"
  discrete.label: "Mid"

Quick check: band for O=c1c2cc(F)ccc2sc2c(N3CCNCC3)nc3ccc(F)cc3c12 Low

Check CN1C(=O)N(C)C2Nn3c(s/c(=C\c4ccccc4)c3=O)=NC21 (stereo not given) too. High

C(=N/Nc1ncnc2nc[nH]c12)/c1ccccn1 ? Low

// same read-out, input: Cc1cc(-c2cc(C)c(N)cc2C)c(C)cc1N Mid

Lookup CCOC(=O)c1[nH]c(C)c(C(=O)OCc2ccccc2C#N)c1C Mid

Likewise for CSc1ncccc1C(=O)OCC(=O)Nc1oc(C)c2c(C)n[nH]c(=O)c12 ? Mid

Could you do the same for Cc1ccccc1C(=O)NN , please? High

Next entry: CN1CCN(c2ccc(-c3ccc4ncc(C#N)c(Nc5ccc(F)c(Cl)c5)c4c3)cc2)CC1 Low

Same thing, different compound: Cc1nc2ccccc2n1CC1C(=O)NC(=O)NC1=O High

Would you kindly repeat that for Cc1ccc(-c2nn(C)c(=O)c3noc(-c4ccc(C)cc4)c23)cc1 ? Low

* * *

Test system: SK-OV-3 ovarian
test.protocol: NCI-60 one-dose screen, 48 h (100 = growth as untreated, 0 = no growth, -100 = all killed)
run.conditions: 10 µM unless noted
About 83,000 compounds went through this panel and 20% of them were active in at least one assay; those are over-represented in the sample as a whole.
growth strictly less than 70% = Criterion met. Otherwise Criterion not met.

- compound: "O=C(N/N=C/[C@H](O)[C@H](O)[C@H](O)CO)c1ccc(NC(=O)c2cccnc2)cc1"
  discrete.label: "Criterion not met"
- compound: "O=c1c2cc(F)ccc2sc2c(NCCCNCCO)nc3ccccc3c12"
  discrete.label: "Criterion not met"
- compound: "CC([C@H]1CCC2C3CCC4C(=O)C(NC=O)=CC[C@]4(C)C3CC[C@@]21C)N(C)C (stereo partly specified)"
  discrete.label: "Criterion not met"
- compound: "O=c1c2cc(F)ccc2sc2c(NCCN3CCOCC3)nc3ccccc3c12"
  discrete.label: "Criterion not met"
- compound: "CCCCCCn1c(-c2ccc(C(=O)O/N=C(\\N)c3ccc(OC)cc3)cc2)nc(-c2ccccc2)c1-c1ccccc1"
  discrete.label: "Criterion not met"
- compound: "COc1cccc(-c2nc(-c3ccc(NC(=O)OC(C)C)cc3)[nH]c2-c2ccnc(Br)c2)c1"
  discrete.label: "Criterion met"
- compound: "Cc1cc(-c2cc(C)c(N)cc2C)c(C)cc1N"
  discrete.label: "Criterion not met"
- compound: "Cc1nc2cnc(N)c(C#Cc3cncc(C(=O)Nc4ccc(CN5CCN(C)CC5)c(C(F)(F)F)c4)c3)c2nc1C"
  discrete.label: "Criterion met"

Given the entry Cc1nc2nc(SCC(=O)O)[nH]c2c(=O)[nH]1 , would its reported growth be below 70%? Criterion not met

Another: O=C1/C(=C/c2ccccc2[N+](=O)[O-])Oc2ccc(O)c(O)c21 Criterion not met

Same lookup for Cc1nn(-c2ccccc2)c(-n2ccnc2)c1/C=N/Nc1nc(-c2ccc(F)cc2)cs1 , please. Criterion not met

Another compound to check: Cc1cccc2c3c(sc12)C(c1ccc(Cl)cc1)C(C#N)=C(N)O3 (stereo unspecified) Criterion met

Next: CCCCn1c(-c2ccc(-c3nc(-c4ccc(Cl)cc4)no3)cc2)nc(-c2ccccc2)c1-c1ccccc1 Criterion not met

What do you get for Cc1ccc2c(-c3cc(-c4ccccc4)nc(N)c3C#N)cc(=O)oc2c1 ? Criterion not met

Input Nc1nc(-c2cccc3ccccc23)cc2ccccc12 Criterion met

Next entry: CCc1ccc2nc(NC(=O)Cc3csc(NC(=O)c4ccco4)n3)sc2c1 Criterion met

Cool, now COc1cccc2nc3n(c12)C(c1c(F)cccc1F)SC3 (stereo unspecified) Criterion not met

Now try CCCCCCCCCCCCCCCCCCOc1ccccc1CC(=O)OCC[N+](CC)(CC)CC . Criterion met

And for O=C(/C=C/c1sc(Cl)nc1Cl)c1ccc(F)cc1 ? Criterion not met

Request: COc1cc2cc(Oc3ccc(NC(=O)Nc4ccc(Cl)c(C(F)(F)F)c4)cc3)c(C)nc2cc1OCCN1CCOCC1 Criterion met
